tgt: Recombinant human HSD17B13 (Homo sapiens (Human), UniProt Q7Z5P4)
Sequence (Q7Z5P4 20-300): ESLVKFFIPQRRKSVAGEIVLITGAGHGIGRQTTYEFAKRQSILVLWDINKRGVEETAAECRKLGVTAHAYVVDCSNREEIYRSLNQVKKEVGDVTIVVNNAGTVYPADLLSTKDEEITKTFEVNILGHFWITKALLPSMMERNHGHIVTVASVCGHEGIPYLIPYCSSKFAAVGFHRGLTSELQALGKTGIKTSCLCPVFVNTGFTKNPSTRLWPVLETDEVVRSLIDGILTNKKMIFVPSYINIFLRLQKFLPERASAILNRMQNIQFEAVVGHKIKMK
assay remarks: HSD17B13 rapid-fire mass spectrometry assay (RF/MS assay)
experimental conditions: inhibition of HSD17B13; LTB4 10 μM, NAD+ 0.5 mM, RT 3 h; IC50 ranges A-E
Method: HSD17B13 rapid-fire mass spectrometry assay (RF/MS assay). Recombinant human HSD17B13 was expressed and purified from sf9 cells at Charles River Labs (Saffron Walden, UK). […] Leukotriene B4 (335.3) and 12-oxoLeukotriene B4 (333.3) SRM transitions were optimized with Discovery Quant software and extracted ion counts for these analytes were determined. […] By using above method, the inhibition of HSD17B13 was evaluated for the compounds of Formula (I). […]
pIC50: −log10 of the molar value.
quantity: pIC50

GET /value?item= COc1cc(C(=O)O)ccc1NS(=O)(=O)c1csc(C#Cc2ccc(C(N)=O)cc2)n1 &field=pIC50 returns 4.00 to 6.00

GET /value?item= COc1cc(C(=O)O)ccc1NS(=O)(=O)N1Cc2ccc(-c3ccc(C4CCCCC4)cc3)cc2C1 &field=pIC50 returns 6.00 to 6.30

GET /value?item= COc1cc(C(=O)O)ccc1NS(=O)(=O)c1csc(C#Cc2cc(C(F)(F)F)[nH]c(=O)c2)n1 &field=pIC50 returns 6.30 to 7.00

GET /value?item= COc1cc(C(=O)O)c(F)cc1NS(=O)(=O)c1csc(-c2ccc(C3=CCC(C)(C)CC3)cc2C(F)F)n1 &field=pIC50 returns > 7.00

GET /value?item= COc1cc(C(=O)O)c(F)cc1NS(=O)(=O)c1csc(-c2ccc(-c3cc(F)c(C(F)(F)F)c(F)c3)c(OC(C)C)c2F)n1 &field=pIC50 returns > 7.00

GET /value?item= O=C(O)c1ccc(NS(=O)(=O)c2cnc(-c3ccc(F)cc3)s2)nc1 &field=pIC50 returns 4.00 to 6.00

GET /value?item= COc1cc(C(=O)O)ccc1NS(=O)(=O)c1cnn(-c2ccc(F)cc2)c1 &field=pIC50 returns 4.00 to 6.00

GET /value?item= COc1cc(C(=O)O)c(Cl)cc1NS(=O)(=O)c1csc(-c2ccc(C3CCC(C)(C)CC3)cc2C(F)(F)F)n1 &field=pIC50 returns 6.00 to 6.30

GET /value?item= O=C(O)c1cc2c(cc1F)CCN(S(=O)(=O)c1ccc(F)cc1)C2 &field=pIC50 returns 4.00 to 6.00

GET /value?item= COc1cc(C(=O)O)ccc1NS(=O)(=O)c1cnc(-c2ccc(-c3ccc4c(c3)CCCC4)cc2)s1 &field=pIC50 returns 6.30 to 7.00

GET /value?item= COc1cc(C(=O)O)c(F)cc1NS(=O)(=O)c1csc(-c2ccc(C3CCC(C)(C)CC3)c(F)c2C)n1 &field=pIC50 returns > 7.00

GET /value?item= COc1cc(-c2ccc(C(=O)O)cc2OC)ccc1NS(=O)(=O)c1cnc(-c2ccc(F)cc2)s1 &field=pIC50 returns 4.00 to 6.00

GET /value?item= COc1cc(C(=O)O)ccc1NS(=O)(=O)c1cccc(-c2ccc(C3CCCCC3)cc2)n1 &field=pIC50 returns 6.30 to 7.00

GET /value?item= COc1cc(C(=O)O)ccc1NS(=O)(=O)c1cnc(-c2ccc(C3=CC4CCC3C4)cc2)s1 (stereo not drawn) &field=pIC50 returns 6.30 to 7.00

GET /value?item= COc1cc(C(=O)O)ccc1NS(=O)(=O)c1cncc(C#Cc2cccc(OC(F)(F)F)c2)c1 &field=pIC50 returns 6.00 to 6.30
